Experiment: in vitro
Details: human, hela cells, % viability
Endpoint name: viability at 28.5 h, 10 µM (%)

> print(dat)
                                   molecule  unit.name  data.value
1                CCCn1nnc(NCc2ccc(Cl)cc2)n1          %        97.2
2  Nc1cc(O)nc(SCC(=O)N2CCN(C(c3ccccc3)c3ccccc3)CC2)n1          %          94
3  CN(Cc1cccc(C#N)c1)Cc1nc2c(cnn2C)c(=O)[nH]1          %         109
4  Cc1cc(C)cc(NC(=O)Cn2cnc3c(sc4ccccc43)c2=O)c1          %        82.5
5  Cc1ccc(S(=O)(=O)Nc2cc(SCC(=O)O)c(O)c3ccccc23)cc1          %        87.1
6  O=C(Nc1cccc(Oc2ccccc2)c1)c1ccc2[nH]ccc2c1          %        97.5
7   CC(=O)c1ccc(-c2cc(Nc3ccc(O)cc3C)ncn2)s1          %         115
8  Nc1ncc(-c2ccc(F)cc2)c(C2CCCN(C(=O)CCc3ccc(F)cc3)C2)n1 (stereo not drawn)          %          89
9  O=C(O)c1c[nH]c2ccc(S(=O)(=O)N3CCOCC3)cc12          %        97.3

----------
Experiment: in vitro
Conditions: human, hela cells, % viability
Overview of reported viability at 28.5 h, 10 µM across a group of molecules:
Endpoint name: viability at 28.5 h, 10 µM (%)

> print(dat)
                                    molecule               endpoint.name  data.value
 1  O=C1CCC(=O)N1CCOc1nccnc1N1CCN(Cc2ccc(Cl)c(Cl)c2)CC1  viability at 28.5 h, 10 µM        92.9
 2  O=S(=O)(Cc1cccc(F)c1F)c1cc2c(N3CCNCC3)nccc2s1 [CBK045690C]  viability at 28.5 h, 10 µM        89.1
 3    C=C(C)Cn1c(SCC(C)C)nnc1-c1ccccc1C(=O)O  viability at 28.5 h, 10 µM        90.1
 4  CC(C)[C@@H](CO)Nc1nccnc1-c1cccc(C(=O)O)c1  viability at 28.5 h, 10 µM        85.6
 5       O=C(NC1CCN(CCOc2ccccc2F)CC1)c1cccs1  viability at 28.5 h, 10 µM        96.8
 6  O=C(CC(NCCO)C(=O)O)Nc1cccc(C(F)(F)F)c1 (stereo not shown)  viability at 28.5 h, 10 µM         109
 7  Cc1ccc(-c2n[nH]c(=S)n2CC(=O)N2CCC(C(=O)Nc3ccc4c(c3)OCO4)CC2)cc1  viability at 28.5 h, 10 µM          82
 8      CC(C)n1nccc1NC(=O)CCn1ccnc1-c1ccccc1  viability at 28.5 h, 10 µM        88.3
 9    CC(=O)N1CCC(Cn2nc(-c3ccccc3)ccc2=O)CC1  viability at 28.5 h, 10 µM         109
10             FC(F)(F)c1ccc(OCCN2CCNCC2)nc1  viability at 28.5 h, 10 µM         110
11  COc1ccc(C(=O)C2=C(O)C(=O)N(CCN(C)C)C2c2cccc([N+](=O)[O-])c2)cc1Cl (stereo not shown)  viability at 28.5 h, 10 µM         102
12  COc1cc(CNC(=O)N(CCc2ccccc2)Cc2ccccc2)cc(OC)c1OC  viability at 28.5 h, 10 µM         110
13  FC(F)(F)Oc1ccc(-c2cc(Nc3ccc(N4CCOCC4)cc3)ncn2)cc1  viability at 28.5 h, 10 µM        88.9
14  O=C(CSc1nc(-c2cccc([N+](=O)[O-])c2)cs1)NCC1CCCO1 (stereo not shown)  viability at 28.5 h, 10 µM        92.8
15  COc1ccc(S(=O)(=O)N(CC(=O)Nc2cccnc2)c2ccc(F)cc2)cc1  viability at 28.5 h, 10 µM        86.5
16  CCC(C)(Sc1nc(C)ccc1C#N)C(=O)O (stereo not shown)  viability at 28.5 h, 10 µM        88.7
17  COc1cccc(OC)c1OCCNC1CCc2cc(Cl)ccc2C1 (stereo not shown) [CBK013079C]  viability at 28.5 h, 10 µM        88.9
18  CCc1nn(CC(=O)N(C(C)C)C(C)C)c(=O)c2cc3occc3n12  viability at 28.5 h, 10 µM        89.3
19  O=C1CCC(C(=O)Nc2cnc(-c3cccc(C(F)(F)F)c3)c(-c3cccnc3)n2)=NN1  viability at 28.5 h, 10 µM        88.3

----------
Experiment: in vitro
Parameters: Viability of infected HeLa host cells, resazurin conversion, bulk resorufin fluorescence relative to DMSO
Conditions: human, hela cells; bulk resorufin, mean of 3
Endpoint name: viability at 28.5 h, 0.00375 µM (%)

> print(dat)
                                    compound                    endpoint.name  unit.name  data.value
 1  Cc1ccc2[nH]c3c(c2c1)CCOC31CCN(Cc2ccccc2-c2ccccc2)CC1 [c22e]  viability at 28.5 h, 0.00375 µM          %        94.8
 2         O=C1Oc2nc3ccccc3cc2CN1C1CC1 [c1e]  viability at 28.5 h, 0.00375 µM          %        88.7
 3  O=C(Nc1ccc(F)c(F)c1)NC1CCC2CN(CCOc3ccccc3)CC2C1 (stereo not drawn) [c9e]  viability at 28.5 h, 0.00375 µM          %        90.8
 4  COc1c(Br)cc2c(cc(C)n2-c2ccccc2)c1OCC(O)CNC(C)C (stereo not drawn) [c5e]  viability at 28.5 h, 0.00375 µM          %        86.3
 5  Oc1c(CN2CCN(c3ccc(F)cc3)CC2)cc(Br)c2cccnc12 [c43e]  viability at 28.5 h, 0.00375 µM          %        92.6
 6  O=C(CC1SC(Nc2ccc(O)cc2)=NC1=O)c1ccccc1 (stereo not drawn) [c13e]  viability at 28.5 h, 0.00375 µM          %        87.7
 7  CCCN(CCC)CCc1cccc2c1CCN2C(=O)c1cc2ccccc2s1 [c15e]  viability at 28.5 h, 0.00375 µM          %        89.8
 8  Cn1cc(C(c2ccc(OCC(=O)O)cc2)c2cn(C)c3ccccc23)c2ccccc21 [c48e]  viability at 28.5 h, 0.00375 µM          %        87.2
 9  COc1cccc(CNC(C(=O)O)c2ccc3c(c2)OCO3)c1 (stereo not drawn) [c40e]  viability at 28.5 h, 0.00375 µM          %         103
10  O=C(NCCc1c[nH]c2ccc(Cl)cc12)c1c(F)ccc(Cl)c1F [c42e]  viability at 28.5 h, 0.00375 µM          %        98.1
11  O=C(CC1CCN(CCc2ccccc2)CC1)Nc1cccc(-n2cccn2)c1 [c4e]  viability at 28.5 h, 0.00375 µM          %        89.2
12  CCC(c1ccc(F)cc1)N(C)C(=O)Cn1cc(C(=O)NC2CCCCC2)ccc1=O (stereo not drawn) [c44e]  viability at 28.5 h, 0.00375 µM          %        93.8
13  O=C(N/N=C/c1ccc(Sc2cccc3cccnc23)o1)c1cccc(F)c1 [c10e]  viability at 28.5 h, 0.00375 µM          %        84.5
14  N#Cc1c(Nc2cccc(C(F)(F)F)c2)sc(C(=O)c2ccc3c(c2)OCO3)c1N [c8e]  viability at 28.5 h, 0.00375 µM          %        88.4
15  O=C(CSc1nnc(-c2cccnc2)o1)c1ccccc1 [c35e]  viability at 28.5 h, 0.00375 µM          %        91.9
16  FC(F)(F)CCN1CCC2(CC1)NCCc1c2[nH]c2ccc(Cl)cc12 [c34e]  viability at 28.5 h, 0.00375 µM          %        88.2
17  FC(F)(F)c1ccc(N2CCNCC2)nc1OCc1ccc2c(c1)OCCO2 [c46e]  viability at 28.5 h, 0.00375 µM          %        88.8
18  CCCCc1ccc(NC(=N)Nc2nc(C)cc(C)n2)cc1 [c33e]  viability at 28.5 h, 0.00375 µM          %        91.3
19      CCOc1ccsc1C(=O)NC1Cc2ccccc2C1 [c16e]  viability at 28.5 h, 0.00375 µM          %        89.9
20  CN(C(=O)c1ccc(Cl)c(Cl)c1)[C@H]1CCC[C@H]1N1CCCC1 [c12e]  viability at 28.5 h, 0.00375 µM          %        91.4
21      CNC(=S)N1CCN(c2nsc3ccccc23)CC1 [c6e]  viability at 28.5 h, 0.00375 µM          %        99.1
